From: PubChem BioAssay AID1159580

Measured normalized growth of individual entries
Assay: chemical genetic growth profiling, strain panel (AID 1159580);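 further: tested at 20 µM; growth read once vehicle control cultures reached saturation at 30 °C; 1 = growth at the plate median or of vehicle wells; lower values mean less growth of the strain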
Details: S. cerevisiae deletion strains, growth OD, locus YJR075W, strain HOC1, hits give low values
Among all 5,500 compounds or so, about 2,000 (36%) were called active. Roughly 18% stayed inconclusive and do not appear here. The list shows a part of the results.
assay_readout: normalized growth

>>> meas_value("CC(C)CCCC(C)C1CCC2C3CC[C@H]4CCCC[C@]4(C)C3CC[C@]12C (stereo partly specified)")
0.965
>>> meas_value("CS(=N)(=O)CC[C@H](N)C(=O)O (stereo partly specified)")
1.01
>>> meas_value("CC(=O)c1ccc(-c2ccc(Cl)c(Cl)c2)o1")
0.787
>>> meas_value("COC(=O)CCC(C)[C@H]1CCC2C3C(C[C@H](O)[C@@]21C)[C@@]1(C)CC[C@@H](O)C[C@H]1C[C@H]3O (stereo partly specified)")
0.986
>>> meas_value("N#C/C(=C\\c1cccc(O)c1)C(=O)O")
0.98
>>> meas_value("CC12CC3CC(C)(C1)CC(N)(C3)C2")
1.01
